Tested on: Group 3-like D556 MB cells
Assay: Proliferation of Group 3-like MB cells
Conditions: read-out: IC50, inhibition of proliferation; D556
VALUE KIND: pIC50
Answer as the number alone; pIC50 is minus log10 of concentration in mol/L.

Problem: So what does the record say about pIC50 for CC(NC(=O)C(C#N)=Cc1cccc(Br)n1)c1ccccc1 (stereo not shown) ?
Solution: 5.92
